Cited source: paper PMC6820745

Readings of Kd for the listed binders
molecular target: T1, hen egg lysozyme (Gallus gallus (hen), UniProt P00698); assay: SPR; Biacore T200; HEL immobilised on CM5 chip (200 RU); VHH flowed over; 25 °C; PBS with 0.005% Tween 20; global fit to a 1:1 binding model; conditions: both partners purified
T1 construct: hen egg lysozyme (lysozyme C), bought from Wako Pure Chemical; also called HEL; source: bought: Wako Pure Chemical (Cat. No. 126-02671), used without further purification
T1 sequence (P00698 19-147): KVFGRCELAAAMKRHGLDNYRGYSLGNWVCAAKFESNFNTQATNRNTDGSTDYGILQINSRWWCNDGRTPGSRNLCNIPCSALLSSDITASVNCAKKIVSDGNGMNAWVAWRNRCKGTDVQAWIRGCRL
Unit nM implied. Number only.

D3-L11 K101A (VHH, as the VHH chain of m2 with the stated change; source: E. coli BL21(DE3), purified (Ni-NTA, SEC)) VHH: DVQLVESGGGSVQAGGSLRLSCAASGSTDSIEYMTWFRQAPGKAREGVAALYTHTGNTYYTDSVKGRFTISQDKAKNMAYLRMDSVKSEDTAIYTCGATRAYVPVRFALDQSSYDYWGQGTQVTVSS    0.0911

As a next step, examine the binder that follows.
Using known records, supply Kd for D3-L11 Y52A (VHH, as the VHH chain of m2 with the stated change; source: E. coli BL21(DE3), purified (Ni-NTA, SEC)) VHH: DVQLVESGGGSVQAGGSLRLSCAASGSTDSIEYMTWFRQAPGKAREGVAALATHTGNTYYTDSVKGRFTISQDKAKNMAYLRMDSVKSEDTAIYTCGATRKYVPVRFALDQSSYDYWGQGTQVTVSS
46.1
